Measurement protocol: self-splicing fitness, log relative to wild type (ln ratio); higher = more splicing; Tetrahymena group I intron in knt gene, E. coli kanamycin selection, DiMSum; sequences stand for … in CUCUCU…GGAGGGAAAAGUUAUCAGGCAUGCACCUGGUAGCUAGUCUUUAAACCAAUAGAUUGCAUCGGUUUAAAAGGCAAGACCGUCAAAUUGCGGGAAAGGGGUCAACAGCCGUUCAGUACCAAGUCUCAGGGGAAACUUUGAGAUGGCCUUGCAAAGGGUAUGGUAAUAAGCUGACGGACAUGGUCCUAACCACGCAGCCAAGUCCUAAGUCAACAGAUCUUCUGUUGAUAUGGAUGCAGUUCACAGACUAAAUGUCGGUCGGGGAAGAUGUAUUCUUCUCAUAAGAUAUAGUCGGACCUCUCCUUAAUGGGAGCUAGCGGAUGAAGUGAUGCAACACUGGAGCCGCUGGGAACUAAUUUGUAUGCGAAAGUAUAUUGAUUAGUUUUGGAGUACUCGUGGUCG;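 further: selection with 25 µg/mL kanamycin versus none on LB agar overnight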
Condition parameters: 37 °C
Catalogue of sequences with associated self-splicing fitness (ln)

[
  {
    "Sequence": "UAACAGCAAUAUUACGUUAA",
    "Test readout": "self-splicing fitness (ln)",
    "Recorded result": -1.6
  },
  {
    "Sequence": "GGGUAGCAAUAUUACGUGUA",
    "Test readout": "self-splicing fitness (ln)",
    "Recorded result": -0.897
  },
  {
    "Sequence": "CUUAAGCAAUAUUACGGGAC",
    "Test readout": "self-splicing fitness (ln)",
    "Recorded result": -1.26
  },
  {
    "Sequence": "GAAUAGCAAUAUUACGCGCA",
    "Test readout": "self-splicing fitness (ln)",
    "Recorded result": -0.494
  },
  {
    "Sequence": "AUAGAGCAAUAUUACGGAGC",
    "Test readout": "self-splicing fitness (ln)",
    "Recorded result": -2.05
  }
]

# input Fill in the blank: the reported self-splicing fitness (ln) of UCGAAGCAAUAUUACGAGGG is ____.
# output -1.62

# input Also need UGUAAGCAAUAUUACGACUA , thanks.
# output 0.0364

====

Measurement protocol: self-splicing fitness, log relative to wild type (ln ratio); higher = more splicing; Tetrahymena group I intron in knt gene, E. coli kanamycin selection, DiMSum; sequences stand for … in CUCUCU…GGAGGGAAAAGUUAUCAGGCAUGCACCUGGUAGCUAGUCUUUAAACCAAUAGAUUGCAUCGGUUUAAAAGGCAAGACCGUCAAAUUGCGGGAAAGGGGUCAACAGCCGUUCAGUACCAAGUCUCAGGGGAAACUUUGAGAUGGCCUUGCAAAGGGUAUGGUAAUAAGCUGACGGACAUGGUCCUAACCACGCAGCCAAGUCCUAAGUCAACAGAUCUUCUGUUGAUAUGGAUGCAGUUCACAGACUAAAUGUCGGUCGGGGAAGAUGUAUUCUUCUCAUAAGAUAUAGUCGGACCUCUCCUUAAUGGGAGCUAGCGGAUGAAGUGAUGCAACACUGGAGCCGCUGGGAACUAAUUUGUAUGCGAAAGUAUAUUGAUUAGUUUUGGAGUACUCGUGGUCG
Condition parameters: 37 °C
Assign Yes whenever self-splicing fitness (ln) does not fall below -2; assign No whenever it does.

Sample answers from the record:
[
  {
    "Sequence": "CGGUAGCAAUAUUACGGUUA",
    "Assigned class": "Yes"
  },
  {
    "Sequence": "GAACAGCAAUAUUACGUAGG",
    "Assigned class": "Yes"
  },
  {
    "Sequence": "ACUGAGCAAUAUUACGUUUU",
    "Assigned class": "No"
  },
  {
    "Sequence": "UCAGAGCAAUAUUACGUCAA",
    "Assigned class": "No"
  }
]

# input Check if self-splicing fitness (ln) >= -2 (inclusive). Item: AGAUAGCAAUAUUACGUCGU
# output Yes

# input Also need GCCAAGCAAUAUUACGCAAC , thanks.
# output Yes

# input Also need AAACAGCAAUAUUACGAGCA , thanks.
# output Yes

# input Also need UUGAAGCAAUAUUACGCAAG , thanks.
# output Yes

# input Also need AUUCAGCAAUAUUACGUCGG , thanks.
# output No

# input Also need CGGAAGCAAUAUUACGAAUU , thanks.
# output No

# input Also need GAUGAGCAAUAUUACGAGCU , thanks.
# output No

# input Also need GGAUAGCAAUAUUACGACGU , thanks.
# output Yes

# input Also need UUUAAGCAAUAUUACGCAGA , thanks.
# output Yes

# input Also need AGGCAGCAAUAUUACGAGUC , thanks.
# output No

# input Also need AAAAAGCAAUAUUACGAGCC , thanks.
# output Yes

====

Catalogue of sequences with associated self-splicing fitness (ln)
Measurement protocol: self-splicing fitness, log relative to wild type (ln ratio); higher = more splicing; Tetrahymena group I intron in knt gene, E. coli kanamycin selection, DiMSum; sequences stand for … in CUCUCU…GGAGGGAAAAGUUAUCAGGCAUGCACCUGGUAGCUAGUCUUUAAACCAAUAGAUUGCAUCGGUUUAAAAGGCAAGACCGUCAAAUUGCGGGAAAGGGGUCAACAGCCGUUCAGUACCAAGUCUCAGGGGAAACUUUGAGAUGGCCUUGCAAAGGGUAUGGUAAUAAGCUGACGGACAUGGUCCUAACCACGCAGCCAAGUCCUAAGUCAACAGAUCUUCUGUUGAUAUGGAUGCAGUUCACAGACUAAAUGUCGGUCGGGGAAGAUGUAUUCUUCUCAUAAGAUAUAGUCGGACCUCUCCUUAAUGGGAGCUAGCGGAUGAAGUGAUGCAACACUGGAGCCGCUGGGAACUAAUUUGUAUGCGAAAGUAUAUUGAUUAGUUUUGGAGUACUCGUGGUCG
Condition parameters: 30 °C
// return a plain number; no unit text

// worked examples, self-splicing fitness (ln) included
[
  {
    "Sequence": "CCAUAGCAAUAUUACGCCAA",
    "self-splicing fitness (ln)": -2.76
  },
  {
    "Sequence": "AACGAGCAAUAUUACGCGAA",
    "self-splicing fitness (ln)": -4
  },
  {
    "Sequence": "AGCGAGCAAUAUUACGCGGG",
    "self-splicing fitness (ln)": -2.55
  },
  {
    "Sequence": "CGUUAGCAAUAUUACGGGUC",
    "self-splicing fitness (ln)": -3.39
  },
  {
    "Sequence": "CUAGAGCAAUAUUACGAUAA",
    "self-splicing fitness (ln)": -2.85
  }
]

# input Fill in the blank: the reported self-splicing fitness (ln) of CAUUAGCAAUAUUACGCUUA is ____.
# output -2.22

# input Also need CAAGAGCAAUAUUACGGAUC , thanks.
# output -3.07

# input Also need CUCAAGCAAUAUUACGUUUG , thanks.
# output -2.21

====

Measurement protocol: self-splicing fitness, log relative to wild type (ln ratio); higher = more splicing; Tetrahymena group I intron in knt gene, E. coli kanamycin selection, DiMSum; sequences stand for … in CUCUCU…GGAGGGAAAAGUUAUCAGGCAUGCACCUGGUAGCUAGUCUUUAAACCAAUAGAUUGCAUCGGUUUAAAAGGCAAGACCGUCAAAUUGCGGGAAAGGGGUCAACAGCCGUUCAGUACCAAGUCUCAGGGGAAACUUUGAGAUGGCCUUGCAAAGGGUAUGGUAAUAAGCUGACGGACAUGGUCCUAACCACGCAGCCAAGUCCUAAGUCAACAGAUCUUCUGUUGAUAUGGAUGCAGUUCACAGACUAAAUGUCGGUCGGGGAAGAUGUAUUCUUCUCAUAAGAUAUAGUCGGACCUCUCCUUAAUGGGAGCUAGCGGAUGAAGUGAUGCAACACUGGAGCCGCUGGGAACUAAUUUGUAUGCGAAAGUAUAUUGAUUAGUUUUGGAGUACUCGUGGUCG
Condition parameters: 30 °C
Assign T whenever self-splicing fitness (ln) does not fall below -3; assign F whenever it does.

Sample answers from the record:
[
  {
    "Sequence": "UGCUAGCAAUAUUACGGGUG",
    "Assigned class": "T"
  },
  {
    "Sequence": "GGGUAGCAAUAUUACGUUAU",
    "Assigned class": "F"
  },
  {
    "Sequence": "GUAUAGCAAUAUUACGUAGC",
    "Assigned class": "F"
  },
  {
    "Sequence": "UAUUAGCAAUAUUACGCGCU",
    "Assigned class": "T"
  },
  {
    "Sequence": "CACAAGCAAUAUUACGUGUU",
    "Assigned class": "F"
  },
  {
    "Sequence": "CCAGAGCAAUAUUACGACGC",
    "Assigned class": "F"
  },
  {
    "Sequence": "CGGCAGCAAUAUUACGAAGU",
    "Assigned class": "F"
  }
]

# input Check if self-splicing fitness (ln) >= -3 (inclusive). Item: GGUGAGCAAUAUUACGGACG
# output T
